Reported IC50 values are given for each entry in this list.
system: Vero; experiment: Cytotoxicity against African green monkey Vero cells assessed as cell viability after 72 hrs by CellTiter 96 assay; format: cell-based; conditions: Chlorocebus sabaeus

# example entries with known answers
Cc1ccc2c(C(=O)NCc3ccccc3)n[nH]c2c1    > 128 µM
Cc1cnc2nc(C)c(C(=O)NCc3ccccc3)n2c1    > 128 µM
Cc1ccc2nc(C)c(C(=O)NCc3ccccc3)n2n1    24.7 µM
O=[N+]([O-])c1cn2c(n1)OC[C@@H](OCc1ccc(OC(F)(F)F)cc1)C2    > 128 µM
Cc1ccc2c(C(=O)NCc3ccccc3)c(C)[nH]c2c1    > 128 µM

Then this molecule:
GET /values?readout=IC50&item= Cc1ccc2nc(C)c(C(=O)NCc3ccccc3)n2c1
> 128 µM

* * *

test system: Mycobacterium kansasii; assay: Antimycobacterial activity against Mycobacterium kansasii ATCC 12478 in 7H9 medium after 6 days and 18 hrs after adding resazurin dye/Tween 80 by Microplate Alamar Blue assay; format: functional
assay.readout: log10 of MIC (log10 of the value in µM)
Form field - Quantity: MIC; Unit: µM; Scale: log10

Cc1ccc2nc(C)c(C(=O)NCc3ccccc3)n2c1    0.60
NNC(=O)c1ccncc1 [ISONIAZID]    0.96
COc1c(N2C[C@@H]3CCCN[C@@H]3C2)c(F)cc2c(=O)c(C(=O)O)cn(C3CC3)c12 [MOXIFLOXACIN]    -0.92
CO[C@H]1/C=C/O[C@@]2(C)Oc3c(C)c(O)c4c(O)c(c(/C=N/N5CCN(C)CC5)c(O)c4c3C2=O)NC(=O)/C(C)=C\C=C\[C@H](C)[C@H](O)[C@@H](C)[C@@H](O)[C@@H](C)[C@H](OC(C)=O)[C@@H]1C [RIFAMPIN]    -1.52

Then this compound:
GET /values?readout=log10 of MIC&item= Cc1cnc2nc(C)c(C(=O)NCc3ccccc3)n2c1
1.27

* * *

test system: Mycobacterium tuberculosis; experiment: Antitubercular activity against Mycobacterium tuberculosis H37Rv ATCC 27294 in glycerol-alanine-salts medium after 7 days by Microplate Alamar Blue assay; assay type: functional; settings: H37Rv ATCC 27294, 168 h
assay.readout: log10 MIC90 (log10 of the value in µM)
Hi team, quick reminder: these entries are log10 of MIC90 (µM).

Please give the measured log10 MIC90 for this compound: Cc1cc(C)n2nc(C(=O)NCc3ccccc3)nc2n1
2.10

# get_value(readout='log10 MIC90', item= Cc1ccn2c(C)c(C(=O)NCc3ccccc3)nc2c1 )
1.85

Which log10 MIC90 value is on record for Cc1cnc2nc(C)c(C(=O)NCc3ccccc3)n2c1 ?
0.10

Quick check: log10 MIC90 of O=[N+]([O-])c1cn2c(n1)OC[C@@H](OCc1ccc(OC(F)(F)F)cc1)C2 [PRETOMANID] ?
-0.92

Look at this compound and give its reported log10 MIC90. Cc1cn2c(C(=O)OCc3ccccc3)c(C)nc2cn1
0.36

Please give the measured log10 MIC90 for this compound: CO[C@H]1/C=C/O[C@@]2(C)Oc3c(C)c(O)c4c(O)c(c(/C=N/N5CCN(C)CC5)c(O)c4c3C2=O)NC(=O)/C(C)=C\C=C\[C@H](C)[C@H](O)[C@@H](C)[C@@H](O)[C@@H](C)[C@H](OC(C)=O)[C@@H]1C [RIFAMPIN]
-0.96

Look up log10 MIC90 for this compound: Cc1cc2nc(C)c(C(=O)OCc3ccccc3)n2c(C)n1
0.04

Using the record for Cc1ccc2nc(C)c(C(=O)NCc3ccccc3)n2n1 , report its log10 MIC90.
1.80
